tested.system: cytochrome bo3 (heme-copper bo3 oxidase) (Escherichia coli)
Construct: dodecyl maltoside micelles; with Cytochrome bo(3) ubiquinol oxidase subunit 2; Cytochrome bo(3) ubiquinol oxidase subunit 3; Cytochrome bo(3) ubiquinol oxidase subunit 4
Sequence (P0ABJ3 whole entry): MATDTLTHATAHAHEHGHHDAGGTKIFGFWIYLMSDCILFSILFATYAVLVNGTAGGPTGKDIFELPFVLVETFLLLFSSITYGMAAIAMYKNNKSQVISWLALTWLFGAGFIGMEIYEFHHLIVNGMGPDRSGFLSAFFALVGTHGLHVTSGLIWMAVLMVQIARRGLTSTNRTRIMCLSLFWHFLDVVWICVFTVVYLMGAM
Sequence (P0ABI8 whole entry): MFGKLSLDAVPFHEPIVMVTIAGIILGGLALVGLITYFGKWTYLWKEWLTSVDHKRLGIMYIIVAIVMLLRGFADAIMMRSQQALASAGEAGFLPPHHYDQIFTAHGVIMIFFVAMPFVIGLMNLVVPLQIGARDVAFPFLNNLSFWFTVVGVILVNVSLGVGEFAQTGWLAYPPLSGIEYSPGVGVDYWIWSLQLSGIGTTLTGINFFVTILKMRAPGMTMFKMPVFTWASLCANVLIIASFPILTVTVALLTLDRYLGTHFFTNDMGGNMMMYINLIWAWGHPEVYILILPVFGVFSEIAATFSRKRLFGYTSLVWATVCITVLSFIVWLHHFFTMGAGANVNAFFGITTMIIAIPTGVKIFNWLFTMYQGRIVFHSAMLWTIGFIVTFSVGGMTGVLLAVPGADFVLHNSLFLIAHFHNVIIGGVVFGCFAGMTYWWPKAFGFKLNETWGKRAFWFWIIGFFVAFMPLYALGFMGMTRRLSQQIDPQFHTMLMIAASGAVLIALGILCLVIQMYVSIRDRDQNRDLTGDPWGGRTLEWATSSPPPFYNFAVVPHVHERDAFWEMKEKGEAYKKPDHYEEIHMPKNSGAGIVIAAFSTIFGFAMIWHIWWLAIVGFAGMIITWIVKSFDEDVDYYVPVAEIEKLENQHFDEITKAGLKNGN
Sequence (P0ABJ1 25-315, further chain): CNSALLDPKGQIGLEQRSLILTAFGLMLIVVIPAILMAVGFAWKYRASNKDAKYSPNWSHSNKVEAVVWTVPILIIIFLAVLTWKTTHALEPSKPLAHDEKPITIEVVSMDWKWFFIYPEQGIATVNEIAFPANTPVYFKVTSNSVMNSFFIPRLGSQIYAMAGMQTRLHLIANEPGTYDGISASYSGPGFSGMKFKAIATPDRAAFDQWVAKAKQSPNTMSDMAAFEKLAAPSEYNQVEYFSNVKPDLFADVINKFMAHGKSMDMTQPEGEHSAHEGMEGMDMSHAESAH
Sequence (P0ABJ6 whole entry, further chain): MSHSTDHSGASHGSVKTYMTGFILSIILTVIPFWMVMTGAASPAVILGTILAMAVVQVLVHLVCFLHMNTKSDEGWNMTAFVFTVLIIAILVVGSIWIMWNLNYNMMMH
test.name: O2 consumption, high-resolution respirometry (Oxygraph-2k); Hill fit with n = […]
pIC50: −log10 of the molar value.

| mol.smiles | pIC50 |
| --- | --- |
| S | 5.96 |
